- measured-target: human MET kinase D1228H (Homo sapiens, UniProt P08581, D1228H)
- Construct: GST-tagged recombinant human MET kinase domain
- Sequence (P08581 1078-1345 D1228H): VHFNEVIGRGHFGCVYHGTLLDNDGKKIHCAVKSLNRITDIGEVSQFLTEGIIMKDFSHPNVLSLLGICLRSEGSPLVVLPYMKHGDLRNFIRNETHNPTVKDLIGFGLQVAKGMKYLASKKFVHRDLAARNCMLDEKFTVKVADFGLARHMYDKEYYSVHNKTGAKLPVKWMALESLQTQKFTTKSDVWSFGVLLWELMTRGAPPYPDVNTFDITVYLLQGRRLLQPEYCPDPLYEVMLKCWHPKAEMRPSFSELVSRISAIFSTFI
- protocol: c-Met Enzyme Assay, D1228H mutant
- details: averaged IC50; D1228H 2 nM; 60-minute incubation at 22° C.; read-out: D1228 H IC50
readout-name: IC50 (nM)
Write the answer as a number in nM, unit excluded.

The cases that follow already have their IC50 on record.
| compound | measured-target | IC50 (nM) |
| --- | --- | --- |
| COc1cc2nccc(Oc3ccc(NC(=O)c4cn(CC(=O)N5CCCC5)cc(-c5ccc(F)cc5F)c4=O)nc3)c2cc1OC [Example 14] | human MET kinase D1228H (Homo sapiens, UniProt P08581, D1228H) | 35.4 |
| COc1cc2nccc(Oc3ccc(NC(=O)c4cn(CCN(C)C)cc(-c5ccc(F)cc5)c4=O)nc3)c2cc1OC [Example 46] | human MET kinase D1228H (Homo sapiens, UniProt P08581, D1228H) | 3.2 |
| COc1cc2nccc(Oc3ccc(NC(=O)c4cn(C(C)C)c(C)c(-c5ccc(F)cc5)c4=O)nc3)c2cc1OC [Example 27] | human MET kinase D1228H (Homo sapiens, UniProt P08581, D1228H) | 1.1 |
| COc1cc2nccc(Oc3ccc(NC(=O)c4cn(CCN(C)C)cc(-c5ccc(F)cc5F)c4=O)nc3)c2cc1OC [Example 44] | human MET kinase D1228H (Homo sapiens, UniProt P08581, D1228H) | 1.9 |
| COc1cc2nccc(Oc3ccc(NC(=O)c4cn(C5CCOCC5)cc(-c5ccc(F)cc5)c4=O)nc3)c2cc1OC [Example 12] | human MET kinase D1228H (Homo sapiens, UniProt P08581, D1228H) | 8.4 |

Lookup: IC50 / human MET kinase D1228H (Homo sapiens, UniProt P08581, D1228H) / COc1cc2nccc(Oc3ccc(NC(=O)c4cn(C)c(C(C)C)c(-c5ccc(F)cc5)c4=O)nc3)c2cc1OC [Example 45] 11.1

Lookup: IC50 / human MET kinase D1228H (Homo sapiens, UniProt P08581, D1228H) / CC(C)n1cc(C(=O)Nc2ccc(Oc3ccnc4cc(OC(F)(F)F)ccc34)cn2)c(=O)c(-c2ccc(F)cc2)c1 [Example 50] 223

Lookup: IC50 / human MET kinase D1228H (Homo sapiens, UniProt P08581, D1228H) / COc1cc2nccc(Oc3cnc(NC(=O)c4cn(C(C)C)c(C)c(-c5ccc(F)cc5)c4=O)nc3)c2cc1OC [Example 55] 2.2

Lookup: IC50 / human MET kinase D1228H (Homo sapiens, UniProt P08581, D1228H) / COc1cc2nccc(Oc3ccc(NC(=O)c4cn(C)cc(-c5ccc(F)cc5)c4=O)nc3)c2cc1OC [Example 2] 16.6

Lookup: IC50 / human MET kinase D1228H (Homo sapiens, UniProt P08581, D1228H) / COc1cc2nccc(Oc3cnc(NC(=O)c4cn(C(C)C)cc(-c5ccc(F)cc5)c4=O)nc3)c2cc1OC [Example 54] 3.8

Lookup: IC50 / human MET kinase D1228H (Homo sapiens, UniProt P08581, D1228H) / COc1cc2nccc(Oc3ccc(NC(=O)c4cn(C(C)C)cc(-c5ccc(F)c(Cl)c5)c4=O)nc3)c2cc1OC [Example 21] 18.7

Lookup: IC50 / human MET kinase D1228H (Homo sapiens, UniProt P08581, D1228H) / COc1cc2nccc(Oc3ccc(NC(=O)c4cn(CC(=O)N(C)C)cc(-c5ccc(F)c(F)c5)c4=O)nc3)c2cc1OC [Example 24] 15.2

Lookup: IC50 / human MET kinase D1228H (Homo sapiens, UniProt P08581, D1228H) / CCOc1ccc2c(Oc3ccc(NC(=O)c4cn(C(C)C)cc(-c5ccc(F)cc5)c4=O)nc3)ccnc2c1 [Example 52] 14.5

Lookup: IC50 / human MET kinase D1228H (Homo sapiens, UniProt P08581, D1228H) / COc1cc2nccc(Oc3ccc(NC(=O)c4cn(C(C)C)cc(-c5ccc(F)cc5C)c4=O)nc3)c2cc1OC [Example 19] 1.6

###

- measured-target: human MET kinase Y1230S (Homo sapiens, UniProt P08581, Y1230S)
- Construct: GST-tagged recombinant human MET kinase domain
- Sequence (P08581 1078-1345 Y1230S): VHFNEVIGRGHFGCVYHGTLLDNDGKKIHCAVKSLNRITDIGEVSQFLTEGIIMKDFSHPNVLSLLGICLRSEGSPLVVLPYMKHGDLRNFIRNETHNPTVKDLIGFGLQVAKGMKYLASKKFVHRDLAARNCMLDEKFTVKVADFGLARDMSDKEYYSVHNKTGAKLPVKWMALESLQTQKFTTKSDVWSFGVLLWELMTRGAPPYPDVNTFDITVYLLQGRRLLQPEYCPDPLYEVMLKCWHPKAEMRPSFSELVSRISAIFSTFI
- protocol: c-Met Enzyme Assay, Y1230S mutant
- details: averaged IC50; Y1230S 8 nM; 60-minute incubation at 22° C.; read-out: Y1230 S IC50
readout-name: IC50 (nM)
Write the answer as a number in nM, unit excluded.

The cases that follow already have their IC50 on record.
| smiles-code | measured-target | IC50, nM |
| --- | --- | --- |
| COc1cc2nccc(Oc3ccc(NC(=O)c4cn(CCN(C)C)cc(-c5ccc(F)c(F)c5)c4=O)nc3)c2cc1OC | human MET kinase Y1230S (Homo sapiens, UniProt P08581, Y1230S) | 1.1 |
| CCC(CC)n1cc(C(=O)Nc2ccc(Oc3ccnc4cc(OC)c(OC)cc34)cn2)c(=O)c(-c2ccc(F)cc2F)c1 | human MET kinase Y1230S (Homo sapiens, UniProt P08581, Y1230S) | 6 |
| CCCC(CCC)n1cc(C(=O)Nc2ccc(Oc3ccnc4cc(OC)c(OC)cc34)cn2)c(=O)c(-c2ccc(F)cc2F)c1 | human MET kinase Y1230S (Homo sapiens, UniProt P08581, Y1230S) | 11.4 |

Quick one: IC50 of COc1cc2nccc(Oc3ccc(NC(=O)c4c[nH]cc(-c5ccc(F)cc5)c4=O)nc3)c2cc1OC ? 9.1

###

- measured-target: human MET kinase D1228N (Homo sapiens, UniProt P08581, D1228N)
- Construct: GST-tagged recombinant human MET kinase domain
- Sequence (P08581 1078-1345 D1228N): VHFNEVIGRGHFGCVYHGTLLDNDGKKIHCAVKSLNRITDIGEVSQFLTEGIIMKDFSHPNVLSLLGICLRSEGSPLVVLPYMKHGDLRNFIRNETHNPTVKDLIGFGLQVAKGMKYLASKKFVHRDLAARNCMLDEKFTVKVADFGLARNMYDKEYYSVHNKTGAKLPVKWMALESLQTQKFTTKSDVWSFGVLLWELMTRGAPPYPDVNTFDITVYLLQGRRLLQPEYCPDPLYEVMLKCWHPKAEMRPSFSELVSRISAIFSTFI
- protocol: c-Met Enzyme Assay, D1228N mutant
- details: averaged IC50; D1228N 2 nM; 60-minute incubation at 22° C.; read-out: D1228 N IC50
Entries annotated with measured pIC50
In plain terms, pIC50 is the concentration in mol/L turned into minus its base-10 logarithm.

The cases that follow already have their pIC50 on record.
| smiles-code | pIC50 |
| --- | --- |
| COc1cc2nccc(Oc3ccc(NC(=O)c4cn(C(C)C)cc(-c5ccc(F)cc5OC)c4=O)nc3)c2cc1OC | 7.76 |
| COc1ccc(-c2cn(C(C)C)cc(C(=O)Nc3ccc(Oc4ccnc5cc(OC)c(OC)cc45)cn3)c2=O)cc1 | 7.00 |
| COc1cc2nccc(Oc3ccc(NC(=O)c4cn(CC(=O)N5CCCC5)cc(-c5ccc(F)cc5F)c4=O)nc3)c2cc1OC | 7.51 |

We next turn to a different compound, shown below.
Quick one: pIC50 of COCCn1cc(C(=O)Nc2ccc(Oc3ccnc4cc(OC)c(OC)cc34)cn2)c(=O)c(-c2ccc(F)cc2)c1 ? 8.19

###

Entries annotated with measured pIC50
- measured-target: His-tagged recombinant human MER cytoplasmic domain (Homo sapiens, UniProt Q12866)
- Construct: His-tagged recombinant human MER cytoplasmic domain
- Sequence (Q12866 527-999 limits assumed): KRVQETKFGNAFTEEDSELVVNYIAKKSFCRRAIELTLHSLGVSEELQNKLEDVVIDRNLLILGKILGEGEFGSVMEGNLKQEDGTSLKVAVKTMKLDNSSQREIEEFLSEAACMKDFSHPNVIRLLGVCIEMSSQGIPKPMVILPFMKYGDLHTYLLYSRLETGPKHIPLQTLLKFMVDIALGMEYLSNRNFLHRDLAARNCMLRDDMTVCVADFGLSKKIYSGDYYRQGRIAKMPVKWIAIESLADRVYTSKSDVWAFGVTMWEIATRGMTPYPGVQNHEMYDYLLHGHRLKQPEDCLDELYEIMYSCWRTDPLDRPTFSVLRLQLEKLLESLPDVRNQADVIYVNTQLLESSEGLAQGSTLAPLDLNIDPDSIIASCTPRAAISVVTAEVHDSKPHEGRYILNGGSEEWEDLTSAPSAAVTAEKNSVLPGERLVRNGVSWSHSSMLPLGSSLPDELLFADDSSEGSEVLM
- protocol: MER Enzyme Assay (LanthaScreen Eu Kinase Binding)
- details: averaged IC50; MER 5 nM; 60-minute incubation at 22° C.; TR-FRET
In plain terms, pIC50 is the concentration in mol/L turned into minus its base-10 logarithm.

The cases that follow already have their pIC50 on record.
| smiles-code | readout-value |
| --- | --- |
| COc1cc2nccc(Oc3ccc(NC(=O)c4cn(C(C)C)cc(-c5ccc(F)cc5C)c4=O)nc3)c2cc1OC | 8.70 |
| CNC(=O)Cn1cc(C(=O)Nc2ccc(Oc3ccnc4cc(OC)c(OC)cc34)cn2)c(=O)c(-c2ccc(F)cc2)c1 | 8.52 |
| CCOc1ccc2nccc(Oc3ccc(NC(=O)c4cn(C(C)C)cc(-c5ccc(F)cc5)c4=O)nc3)c2c1 | 7.85 |
| COc1cc2nccc(Oc3cnc(NC(=O)c4cn(C(C)C)cc(-c5ccc(F)cc5)c4=O)nc3)c2cc1OC | 8.00 |
| COc1cc2ncc(C#N)c(Oc3ccc(NC(=O)c4cn(C(C)C)cc(-c5ccc(F)cc5)c4=O)nc3)c2cc1OC | 7.54 |
| COc1cc2nccc(Oc3ccc(NC(=O)c4cn(C(C)C)c(C)c(-c5ccc(F)c(F)c5)c4=O)nc3)c2cc1OC | 8.52 |
| CC(C)n1cc(C(=O)Nc2ccc(Oc3ccnc4cc(OC(F)(F)F)ccc34)cn2)c(=O)c(-c2ccc(F)cc2)c1 | 7.10 |
| COc1cc2nccc(Oc3ccc(NC(=O)c4cn(CC(=O)N(C)C)cc(-c5ccc(F)cc5F)c4=O)nc3)c2cc1OC | 8.30 |

Lookup: pIC50 / His-tagged recombinant human MER cytoplasmic domain (Homo sapiens, UniProt Q12866) / COc1ccc(-c2cn(C(C)C)cc(C(=O)Nc3ccc(Oc4ccnc5cc(OC)c(OC)cc45)cn3)c2=O)cc1 8.30

Lookup: pIC50 / His-tagged recombinant human MER cytoplasmic domain (Homo sapiens, UniProt Q12866) / COc1cc2nccc(Oc3ccc(NC(=O)c4cn(CC(=O)N(C)C)cc(-c5ccc(Cl)cc5)c4=O)nc3)c2cc1OC 8.30
